- ASSAY_TARGET: SDH derived from Mus musculus (Mouse) (Mus musculus, UniProt Q9CQA3+Q9CXV1+Q9CZB0)
- Sequence (Q9CQA3 31-282): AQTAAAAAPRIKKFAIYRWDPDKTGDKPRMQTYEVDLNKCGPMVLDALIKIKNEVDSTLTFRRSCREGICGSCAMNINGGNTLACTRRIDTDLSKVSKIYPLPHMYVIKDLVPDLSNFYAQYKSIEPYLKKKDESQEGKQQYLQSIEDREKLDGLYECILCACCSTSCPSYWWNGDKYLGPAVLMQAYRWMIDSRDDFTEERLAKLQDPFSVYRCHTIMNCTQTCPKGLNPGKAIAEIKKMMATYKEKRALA
- Sequence (Q9CZB0 30-169): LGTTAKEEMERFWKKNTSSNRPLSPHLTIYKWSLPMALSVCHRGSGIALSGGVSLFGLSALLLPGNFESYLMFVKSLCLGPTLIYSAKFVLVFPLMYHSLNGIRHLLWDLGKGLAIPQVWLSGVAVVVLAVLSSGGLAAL
- Sequence (Q9CXV1 57-159): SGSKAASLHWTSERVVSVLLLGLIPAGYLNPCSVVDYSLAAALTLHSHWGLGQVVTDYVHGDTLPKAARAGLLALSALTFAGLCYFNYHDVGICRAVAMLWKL
- Sequence (Q8K2B3 43-664 partner): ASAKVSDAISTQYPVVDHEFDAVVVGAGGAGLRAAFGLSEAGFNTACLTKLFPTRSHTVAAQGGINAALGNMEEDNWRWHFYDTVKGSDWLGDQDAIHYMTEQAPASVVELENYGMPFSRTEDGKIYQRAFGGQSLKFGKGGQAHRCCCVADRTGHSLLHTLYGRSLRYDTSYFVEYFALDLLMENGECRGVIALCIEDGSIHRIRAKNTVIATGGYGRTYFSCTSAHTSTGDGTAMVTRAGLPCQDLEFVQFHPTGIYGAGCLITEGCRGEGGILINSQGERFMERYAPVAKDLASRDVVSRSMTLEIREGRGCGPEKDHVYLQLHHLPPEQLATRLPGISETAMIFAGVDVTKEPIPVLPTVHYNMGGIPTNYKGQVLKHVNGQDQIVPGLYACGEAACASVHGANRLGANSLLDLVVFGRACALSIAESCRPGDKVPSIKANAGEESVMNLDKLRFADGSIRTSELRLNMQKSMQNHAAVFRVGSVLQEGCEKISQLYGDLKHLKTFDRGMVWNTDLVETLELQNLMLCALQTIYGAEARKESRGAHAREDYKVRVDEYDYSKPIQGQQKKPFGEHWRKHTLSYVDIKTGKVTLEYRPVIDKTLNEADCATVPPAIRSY
- PROCEDURE_TEXT: SDH inhibition, DCIP method
OUTCOME_MEASURE: IC50

Recorded IC50 for O=C(Nc1ccccc1-c1ccc(F)c(F)c1)c1nccnc1C(F)(F)F , please?
> 32 µM

----------
- PROCEDURE_TEXT: Solubility in water
- Type: physicochemical
OUTCOME_MEASURE: solubility (µg/mL)
Give just the number in µg/mL; leave the unit off.

Recorded solubility for O=C(Nc1ccccc1-c1ccc(F)c(F)c1)c1nccnc1C(F)(F)F , please?
2.32

----------
- ASSAY_TARGET: SDH derived from Venturia inaequalis (Venturia inaequalis, UniProt A0A0H4U4T0+A0A370JIY7+A0A8H3Z7E8)
- Sequence (A0A0H4U4T0 26-281): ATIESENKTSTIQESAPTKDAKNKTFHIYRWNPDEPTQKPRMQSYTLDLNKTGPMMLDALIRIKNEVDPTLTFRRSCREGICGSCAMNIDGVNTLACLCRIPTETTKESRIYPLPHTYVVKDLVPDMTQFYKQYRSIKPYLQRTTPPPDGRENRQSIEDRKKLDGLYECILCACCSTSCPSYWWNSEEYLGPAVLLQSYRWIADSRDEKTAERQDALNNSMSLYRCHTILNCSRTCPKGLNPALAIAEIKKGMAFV
- Sequence (A0A370JIY7 44-187): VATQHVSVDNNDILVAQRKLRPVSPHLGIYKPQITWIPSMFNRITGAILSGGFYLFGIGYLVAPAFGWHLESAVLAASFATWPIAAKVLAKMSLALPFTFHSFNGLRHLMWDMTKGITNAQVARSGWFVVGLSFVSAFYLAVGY
- Sequence (A0A8H3Z7E8 72-200): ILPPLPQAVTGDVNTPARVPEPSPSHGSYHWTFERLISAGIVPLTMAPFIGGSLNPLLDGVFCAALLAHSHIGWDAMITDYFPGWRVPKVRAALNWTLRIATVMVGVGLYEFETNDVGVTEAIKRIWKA
- Sequence (A0A8H3ZBE1 860-1473 partner): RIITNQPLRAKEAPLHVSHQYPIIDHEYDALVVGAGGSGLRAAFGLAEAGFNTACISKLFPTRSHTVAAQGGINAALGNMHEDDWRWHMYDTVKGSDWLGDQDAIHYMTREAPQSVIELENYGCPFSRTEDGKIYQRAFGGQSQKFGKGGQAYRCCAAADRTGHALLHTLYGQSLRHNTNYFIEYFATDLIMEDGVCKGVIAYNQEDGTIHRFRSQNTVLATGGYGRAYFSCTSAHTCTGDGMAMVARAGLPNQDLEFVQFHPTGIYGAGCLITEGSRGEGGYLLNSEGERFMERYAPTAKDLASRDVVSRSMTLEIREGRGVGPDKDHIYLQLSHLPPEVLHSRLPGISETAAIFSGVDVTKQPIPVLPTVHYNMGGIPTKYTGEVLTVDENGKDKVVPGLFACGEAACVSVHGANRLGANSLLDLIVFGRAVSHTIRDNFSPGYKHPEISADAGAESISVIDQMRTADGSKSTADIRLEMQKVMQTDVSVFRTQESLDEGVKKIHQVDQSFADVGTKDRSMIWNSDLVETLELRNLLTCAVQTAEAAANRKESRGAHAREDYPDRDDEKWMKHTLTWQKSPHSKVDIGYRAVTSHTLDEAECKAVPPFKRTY
- PROCEDURE_TEXT: SDH inhibition, DCIP method
- TEST_CONDITIONS: read-out: SDH IC50
OUTCOME_MEASURE: IC50 (µM)
Give just the number in µM; leave the unit off.

Recorded IC50 for O=C(Nc1ccccc1-c1ccc(F)c(F)c1)c1nccnc1C(F)(F)F [Compound 9] , please?
0.0189

----------
- ASSAY_TARGET: SDH derived from Magnaporthe oryzae (Pyricularia oryzae, UniProt A0ABQ8NN34+G4N2P5+G4NB04)
- TEST_CONDITIONS: read-out: SDH IC50
OUTCOME_MEASURE: pIC50
Quick note: pIC50 means taking -log10 of the concentration in moles per liter.

Recorded pIC50 for O=C(Nc1ccccc1-c1ccc(F)c(F)c1)c1nccnc1C(F)(F)F [Compound 9] , please?
5.60

Hello, the source for this data is paper PMC7453301, in case you need it.
